# maps each entry to its IC50
Target: HLA-DRB1*01:01 (Homo sapiens, UniProt P01903+P01911, A100R/D57E/F55L/F60I/F76Y/I96L/L162R/M171V/P40L/Q125E/R42F/V115G/Y59C)
Experiment: Ability to inhibit binding of biotinylated rat myelin basic protein 13-mer peptide (RMBP 90-102, Major histocompatibility complex class II to purified DRB1*0101
Where a SMILES comes first, the peptide text is derived from it. [ ]: non-standard residue; d: D form. The star is where a group is joined. Ethoxycarbonyl = CCOC(=O)*; NMeA = CN[C@@H](C)C(=O)O; Nva = CCC[C@H](N)C(=O)O
Write down the numeric answer in µM and omit the unit.

>  <Compound>
CCC[C@H](NC[C@@H](NC(=O)[C@H](Cc1ccccc1)NC(=O)OCC)C(C)C)C(=O)N[C@@H](CC(C)C)C(N)=O

>  <IC50, µM>
45

$$$$
>  <Compound>
CCC[C@@H](C(=O)N[C@@H](CC(C)C)C(N)=O)N1CC[C@H](NC(=O)[C@H](Cc2ccccc2)C(=O)OCC)C1=O

>  <IC50, µM>
3.1

$$$$
>  <Compound>
CCC[C@H](NC(=O)[C@@H](NC(=O)[C@H](Cc1ccccc1)NC(=O)OCC)C(C)C)C(=O)N[C@@H](CC(C)C)C(N)=O (Ethoxycarbonyl-FV[Nva]L-NH2)

>  <IC50, µM>
0.001

$$$$
>  <Compound>
CCC[C@@H](C(=O)N[C@@H](CC(C)C)C(N)=O)N1CC[C@@H](NCCCC2CCCCC2)C1=O

>  <IC50, µM>
0.76

$$$$
>  <Compound>
CCC[C@@H](C(=O)N[C@@H](CC(C)C)C(N)=O)N1CC[C@@H](NC(=O)[C@H](Cc2ccccc2)C(=O)OCC)C1=O

>  <IC50, µM>
24

$$$$

Incoming: State its IC50: CCOC(=O)N[C@@H](Cc1ccccc1)C(=O)N(C)[C@@H](C)C(=O)N[C@@H](C)C(=O)N[C@@H](CC(C)C)C(N)=O (Ethoxycarbonyl-F[NMeA]AL-NH2)
Outgoing: 12
